B1: EEHEE_rd4_0469 (parent)
chain: ITIHVNGVTYHFDNPEEAEKFAQKMAKTYQLKMEIHNGEFHME

variants of: B1; experiment: folding stability dG (cDNA display proteolysis); higher = more stable; conditions: PBS, room temperature
Label scheme for folding stability dG: lower than 1 kcal/mol is class 0, 1 kcal/mol and above is class 1.

q: Is it the case that E19A has folding stability dG reaching or exceeding 1 kcal/mol?
a: class 1

q: Assess whether reported folding stability dG for H11G sits at 1 kcal/mol or higher.
a: class 0

q: Threshold query (folding stability dG >= 1 kcal/mol) on F40T
a: class 0

q: Given the entry N6L , answer whether its folding stability dG meets or surpasses 1 kcal/mol.
a: class 1

q: Hi team, for E39V , is the recorded folding stability dG at or above 1 kcal/mol?
a: class 1

q: Tell me whether folding stability dG is at least 1 kcal/mol here: G7Q
a: class 0

q: Decide: is the reported value of folding stability dG for E19P equal to or greater than 1 kcal/mol?
a: class 0

q: Textbook exercise: given the entry F21I , state whether its folding stability dG is greater than or equal to 1 kcal/mol.
a: class 0
